test system: PRMT1 (protein arginine N-methyltransferase 1); assay: small molecules binding arginine methyltransferase PRMT1 – biochemical, small-molecule microarray, 635 nm fluorescence, primary screen (AID 1088); conditions: higher = more signal;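 also: binding of Prmt1 protein to compounds spotted on small-molecule microarray slides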
Give composite z-score for every item shown.

Request: Endpoint output: composite z-score of CC1(C)C(=O)C(c2ccccc2)=C2CN3C(=O)N(CCc4ccccc4)C(=O)C3(Cc3ccccc3)C=C21 (stereo not drawn) . Value?
Response: -0.377

Request: What value of composite z-score has been reported for the following molecule? C=C(COC)C(=O)CC[C@H](OC(=O)c1cccnc1)c1ccccc1OCCO
Response: 1.56

Request: What value of composite z-score has been reported for the following molecule? COCC1C2CC[C@H]3C(OCc4ccc(F)cc4C(F)(F)F)OC[C@]4(C)[C@H]3C2=C(CN4C(=O)OC(C)(C)C)[C@H](C)C1COC (stereo partly drawn)
Response: 0.61

Request: Need composite z-score, item C=CC[C@]1(C(=O)NCCN2CCOCC2)N=C(c2ccc(OCCCO)cc2)O[C@H]1c1ccccc1N=[N+]=[N-]
Response: 1.58

Request: GET /values?readout=composite z-score&item= [N-]=[N+]=NCc1ccccc1C[C@]1(C(=O)N2CCOCC2)N=C(c2ccc(OCCCO)cc2)O[C@H]1c1ccccc1
Response: 1.46

Request: # composite z-score lookup, item CC(=O)NCCCC[C@@H]1NC(=O)[C@@H]2C[C@H](C(=O)NCc3ccc(F)cc3)[C@H](c3ccc(O)cc3)N2C1=O
Response: 1.54

Request: composite z-score for CC(C)NC(=O)[C@@H]1c2ccccc2C(=O)N(C2CCCCC2)[C@H]1c1ccc(CO)cc1 ?
Response: 0.4

Request: So what's the measured composite z-score for this one? C=C(/C(=C/C[C@@H](OC(=O)c1ccncc1)c1ccc(CO)o1)c1cc(C(=O)OC)ccc1OC)C(C)C
Response: 1.53
